Where these numbers come from: patent US20090191571A1

targetOrSystem: PrP^Sc (pathogenic mouse prion protein, RML, in infected Balb-c mouse brain homogenate) (mouse), P04925
experimentalEndpoint: ELISA A405nm

Example binders with recorded ELISA A405nm:
binder: GGGKARPKPGG (modifications not checked) [Peptide reagent SEQ ID NO:105]
assayValue: 0.256 A405nm
//
binder: GGGAKRPKPGG (modifications not checked) [Peptide reagent SEQ ID NO:104]
assayValue: 0.273 A405nm
//
binder: GGGKKAPKPGG (modifications not checked) [Peptide reagent SEQ ID NO:106]
assayValue: 0.268 A405nm

Kindly review the next binder as well.
Qu. Recorded ELISA A405nm of GGGKKRPAPGG (modifications not checked) [Peptide reagent SEQ ID NO:107] , please.
Ans. 0.578 A405nm
